Test system: MDAMB231
Experiment: In vitro sphere-forming assay (cancer stem cells), Mammosphere media
Conditions: Homo sapiens, MDA-MB-231, read-out: % Viability of spheres (MDAMB231)
Classify: satisfied when viability at 2.5 µM is strictly less than 40%; not satisfied when viability at 2.5 µM is not.

COc1ccc(NC2=CC(=O)c3c(OCCN4CCOCC4)cccc3C2=O)cc1OC [Formula 40] ... satisfied
COc1ccc(NC2=CC(=O)c3c(OCCN4CCOCC4)cccc3C2=O)cc1 [Formula 37] ... not satisfied

Inquiry: Hello, is viability at 2.5 µM of the following molecule strictly smaller than 40%? O=C1C(Oc2ccc3c(c2)OCO3)=CC(=O)c2c(OCCN3CCOCC3)cccc21 [Formula 46]
Reply text: satisfied

Inquiry: Hello, is viability at 2.5 µM of the following molecule strictly smaller than 40%? O=C1C=C(Oc2ccc(F)cc2)C(=O)c2c(OCCN3CCOCC3)cccc21 [Formula 80]
Reply text: satisfied

Inquiry: Hello, is viability at 2.5 µM of the following molecule strictly smaller than 40%? CCN(CC)CCNC(=O)COc1cccc2c1C(=O)C=C(Nc1ccc(OC)cc1)C2=O [Formula 72]
Reply text: satisfied

Inquiry: Hello, is viability at 2.5 µM of the following molecule strictly smaller than 40%? O=C1C(Oc2ccc(F)cc2F)=CC(=O)c2c(OCCN3CCOCC3)cccc21 [Formula 74]
Reply text: satisfied

Inquiry: Hello, is viability at 2.5 µM of the following molecule strictly smaller than 40%? COc1ccc(OC2=CC(=O)c3c(OCCN4CCOCC4)cccc3C2=O)cc1 [Formula 43]
Reply text: satisfied

Inquiry: Hello, is viability at 2.5 µM of the following molecule strictly smaller than 40%? O=C1C(Oc2ccc(F)cc2)=CC(=O)c2c(OCCCN3CCOCC3)cccc21 [Formula 78]
Reply text: not satisfied

Inquiry: Hello, is viability at 2.5 µM of the following molecule strictly smaller than 40%? O=C1C(NC2CCCCC2)=CC(=O)c2c(OCCN3CCOCC3)cccc21 [Formula 52]
Reply text: satisfied

Inquiry: Hello, is viability at 2.5 µM of the following molecule strictly smaller than 40%? O=C1C=C(OCCCCN2CCOCC2)C(=O)c2ccccc21 [Formula 67]
Reply text: not satisfied

Inquiry: Hello, is viability at 2.5 µM of the following molecule strictly smaller than 40%? O=C1C=C(N2CCOCC2)C(=O)c2c(OCCN3CCOCC3)cccc21 [Formula 73]
Reply text: satisfied

Inquiry: Hello, is viability at 2.5 µM of the following molecule strictly smaller than 40%? O=C1C(c2ccc3c(c2)OCO3)=CC(=O)c2c(OCCCC(=O)N3CCOCC3)cccc21 [Formula 69]
Reply text: satisfied

Inquiry: Hello, is viability at 2.5 µM of the following molecule strictly smaller than 40%? O=C1C(Nc2ccc3c(c2)OCO3)=CC(=O)c2c(OCC(=O)N3CCOCC3)cccc21 [Formula 71]
Reply text: satisfied

###

Tested on: MDAMB231
Assay: In vitro sphere-forming assay (cancer stem cells), Mammosphere media
Details: drug 25 uM; Mammosphere media; 2000 cells/well; n = 6 ± S.D
Examples of molecules with documented 3D sphere count of MDAMB231 follow.

Solved entries:
O=C1C(Oc2ccc(F)c(F)c2)=CC(=O)c2c(OCCN3CCOCC3)cccc21 ... 26(±4)
O=C1C=C(OCCCCN2CCOCC2)C(=O)c2ccccc21 ... 31(±2)
O=C1C=C(N2CCOCC2)C(=O)c2c(OCCN3CCOCC3)cccc21 ... 14(±3)

Field: next molecule
Inquiry: Would you kindly share the measured 3D sphere count of MDAMB231 for COc1ccc(OC2=CC(=O)c3c(OCCN4CCOCC4)cccc3C2=O)cc1 [Formula 43] ?
Reply text: 21(±3)

###

Tested on: MDAMB231
Assay: In vitro sphere-forming assay (cancer stem cells), Mammosphere media
Details: drug 25 uM; Mammosphere media; 2000 cells/well; n = 6 ± S.D
measure: 3D sphere count of MDAMB231

Solved entries:
O=C1C(c2ccc3c(c2)OCO3)=CC(=O)c2c(OCCCC(=O)N3CCOCC3)cccc21 [Formula 69] ... 16(±2)
O=C1C(c2ccc(F)cc2)=CC(=O)c2c(OCCN3CCOCC3)cccc21 [Formula 7] ... 22(±3)
COc1ccc(NC2=CC(=O)c3c(OCCCCN4CCOCC4)cccc3C2=O)cc1OC [Formula 41] ... 15(±3)
O=C1C=C(Oc2ccc3c(c2)OCO3)C(=O)c2c(OCCN3CCOCC3)cccc21 [Formula 79] ... 17(±3)
O=C1C=C(Oc2ccc(F)cc2)C(=O)c2c(OCCN3CCOCC3)cccc21 [Formula 80] ... 14(±4)

Field: next compound
Inquiry: Would you kindly share the measured 3D sphere count of MDAMB231 for CCN(CC)CCNC(=O)COc1cccc2c1C(=O)C=C(Nc1ccc(OC)cc1)C2=O [Formula 72] ?
Reply text: 14(±3)

###

Examples of compounds with documented 3D sphere count of PC3 follow.
Tested on: PC3
Test: In vitro sphere-forming assay (cancer stem cells), Prostosphere media
Conditions: drug 0.025 uM; Prostosphere media; 2000 cells/well; n = 6 ± S.D

Solved entries:
O=C1C=C(N2CCOCC2)C(=O)c2c(OCCN3CCOCC3)cccc21 [Formula 73] ... 55(±3)
O=C1C(Oc2ccc(F)cc2)=CC(=O)c2c(OCCN3CCOCC3)cccc21 [Formula 75] ... 46(±4)
O=C1C=C(OCCCCCCN2CCOCC2)C(=O)c2ccccc21 [Formula 68] ... 48(±3)

Inquiry: Would you kindly share the measured 3D sphere count of PC3 for O=C1C(c2ccc(F)cc2)=CC(=O)c2c(OCCN3CCOCC3)cccc21 [Formula 7] ?
Reply text: 57(±3)

Inquiry: Would you kindly share the measured 3D sphere count of PC3 for O=C1C(Oc2ccc(F)cc2F)=CC(=O)c2c(OCCN3CCOCC3)cccc21 [Formula 74] ?
Reply text: 45(±2)

Inquiry: Would you kindly share the measured 3D sphere count of PC3 for CCN(CC)CCNC(=O)COc1cccc2c1C(=O)C=C(Nc1ccc(OC)cc1)C2=O [Formula 72] ?
Reply text: 51(±3)

###

Tested on: MDAMB231
Assay: In vitro sphere-forming assay (cancer stem cells), Mammosphere media
Details: Homo sapiens, MDA-MB-231, read-out: % Viability of spheres (MDAMB231)
measure: viability at 2.5 µM (%)
# output: bare number, implied unit %

Solved entries:
O=C1C(Oc2ccc(F)c(F)c2)=CC(=O)c2c(OCCN3CCOCC3)cccc21 ... 40
O=C1C=C(OCCCCCCN2CCOCC2)C(=O)c2ccccc21 ... 39

Inquiry: Would you kindly share the measured viability at 2.5 µM for `COc1ccc(OC2=CC(=O)c3c(OCCCN4CCOCC4)cccc3C2=O)cc1` ?
Reply text: 40

Source listed as patent US20240018132A1.
